Molecular target: T1, 4H2713-AA
T1 chain: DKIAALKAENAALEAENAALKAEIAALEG
Assay: two-hybrid library CCmax;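 also: natural log of median RNA to DNA barcode read ratio; higher means stronger binding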
Conditions: mean of both orientations
Measurement Name: interaction score

Use the examples below as a reference point.
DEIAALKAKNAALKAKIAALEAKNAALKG [4H1000-AA] :: -1.49
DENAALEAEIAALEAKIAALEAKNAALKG [4H1064-AA] :: -1.48
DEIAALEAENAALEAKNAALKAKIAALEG [4H189-AA] :: 1.05
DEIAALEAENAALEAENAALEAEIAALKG [4H146-AA] :: 0.457
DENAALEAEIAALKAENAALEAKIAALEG [4H1109-AA] :: -1.49

[P] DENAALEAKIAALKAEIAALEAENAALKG [4H1348-AA]
[Q] DENAALEAEIAALKAKNAALKAEIAALKG [4H1146-AA]
Parameter check: reported interaction score is higher for which label, P or Q ? Answer format: the label of the selected item.
Q
